System: CHIKV
Assay type: cell-based, chikungunya virus
// values below are reported Score_si3
A bare number is all that is needed in reply.

Consider the worked cases shown below.
s8292 (sense GGATTGTTATCCGACTGAA; chemistry not given here)    1.63
s25039 (sense CAAATTTCCTGTTAATCGA; chemistry not given here) [reference compound]    -0.41
Hs_NRD1_1 (CAGGGTGAAGCCACTTCATTA; chemistry not given here)    1.32
s38697 (GCAATTTGCTGTTGCCGAA; chemistry not given here)    -0.06
s18240 (GATTGATGCTGGAAGTAGA; chemistry not given here)    1.21

May I ask what Score_si3 has been recorded for s10856 (sense AAGTTTACGTGAACAAATT; chemistry not given here) ? -0.27

Next record, please: s12471 (sense CTTCTGTACCCATCAGTAA; chemistry not given here) 1.63

Next substance up: s12381 (sense AGGCTCAGATCGACCAATA; chemistry not given here) 0.71

Now consider s37726 (ACTTTTCCCTCTCTCCTAA; chemistry not given here) and answer again. 0.28

Now try s28379 (sense GAGTTACGATTGTACCCTA; chemistry not given here) . 1.67

---

pIC50 overview
Tested on: HEK-293 cells
assay_protocol: Cell viability, Cell Proliferation Reagent WST-1
Type: cell-based, human
conditions_used: Homo sapiens, HEK293, 18 h, read-out: WST-1 IC50
Please note pIC50 is a logarithmic value: minus log10 of concentration in mol/L. Answer with that number alone.

Identify the measured pIC50 of OCCN1CCN(CCCN2c3ccccc3Sc3ccc(Cl)cc32)CC1 [Perphenazine] for HEK-293 cells. 4.62

Ok, now CC(Cc1ccccc1)NCCC(c1ccccc1)c1ccccc1 (stereo not shown) [Prenylamine] 4.78

Please give the result for CCCCCCCCCCC[C@@H](C[C@@H]1OC(=O)[C@H]1CCCCCC)OC(=O)[C@H](CC(C)C)NC=O [Orlistat] too. 5.06

Lookup Cc1ccc(Nc2nccc(N(C)c3ccc4c(C)n(C)nc4c3)n2)cc1S(N)(=O)=O [Pazopanib] 5.88

---

Below, each entry is listed alongside its reported Score_si3.
System: CHIKV
Type: cell-based, chikungunya virus
The response must contain the number and no unit.

Solved cases (4 shown):
Hs_ROCK1_3 (sense CAGATAAAGATCACACTGTTA; chemistry not given here)    0.95
s14706 (sense GCATGATCTAGATCGAGTA; chemistry not given here)    1.88
s7005 (sense AGAAAAATCTCAAGGAAAA; chemistry not given here)    1.86
Hs_SREBF2_4 (sense AAGGCCATTGATTACATCAAA; chemistry not given here)    1.41

Below: the item to evaluate.
Which Score_si3 reading was recorded for the substance s19038 (sense GGAATATTCTTCAGCTACA; chemistry not given here) ? 1.51

---

System: CHIKV
Format: cell-based, chikungunya virus
The label is Criterion met for Score_si2 below 1 and Criterion not met for Score_si2 equal to or exceeding 1.

Does Hs_PDLIM5_5 (CAGCAGGGAAACGAACTCCGA; chemistry not given here) have Score_si2 strictly under 1? Criterion not met

Same read-out for Hs_CCDC6_2 (sense CAGGAATTTCAGGTCAACAAA; chemistry not given here) [reference compound] ? Criterion met

Another substance to look at: Hs_GP1BB_3 (sense CTGCTGCGTCTCCCTTCCAAA; chemistry not given here) [reference compound] Criterion met

Now the substance Hs_CIZ1_2 (sense CAGCATGGAAGAGATTCAGAA; chemistry not given here) [reference compound] Criterion met

Continue with s38777 (GGCTCAAACTGGGAGTCAA; chemistry not given here) Criterion not met

Now consider Hs_FLJ10134_2 (CTCCTTGACCATGGAATTATA; chemistry not given here) and answer again. Criterion not met

Next: s26228 (sense GAACCTCACTGAGCCTTGA; chemistry not given here) Criterion met

---

Tested on: CHIKV
Format: cell-based, chikungunya virus
Binary call on Score_si3 with cut-off 0.6: strictly below means Condition met, and equality or higher means Condition not met.

Below, 4 substances whose answers are already recorded.
s195938 (sense ATTTATCTCTGCATCGACA; chemistry not given here) [reference compound]    Condition met
s195093 (sense AGCTGTCCCTCTTTGCTGT; chemistry not given here) [reference compound]    Condition met
Hs_IRAK1_6 (sense TCCCATCGCCATGCAGATCTA; chemistry not given here)    Condition not met
s26229 (sense GGTGGTATACGGGACCAAT; chemistry not given here)    Condition met

Would you kindly verify if Score_si3 of s992 (GTGTTTTTCCGTAAGCATA; chemistry not given here) [reference compound] is strictly less than 0.6? Condition met

One more substance: s27210 (sense GGTTTTAAACATAACGAAA; chemistry not given here) [reference compound] Condition met

Same question, s5030 (sense GGTATGCGACGGGAAAGTA; chemistry not given here) this time Condition not met

Entry to check: Hs_UMPS_4 (AAGCTTCTCAGGCTTATGCAA; chemistry not given here) Condition not met

Would you mind doing Hs_PDLIM5_6 (TCCGATGTGCGCCCATTGTAA; chemistry not given here) as well? Condition not met

Same question for s31789 (AGGACATTATCAACCCGGA; chemistry not given here) please. Condition not met

Proceed to s195100 (sense GGGTGAATGTAGACCCTGA; chemistry not given here) Condition not met

Now try s12109 (sense CAGCCCTTGTTCTCATCAA; chemistry not given here) . Condition not met

Subsequent entry: Hs_PEX19_2 (TCCCTTGAGTATTTCAATGTA; chemistry not given here) Condition met

---

Test system: CHIKV
Assay type: cell-based, chikungunya virus
outcome_measure: Score_si2

s16635 (GAGCACTACTTGTACATGA; chemistry not given here)    2.02
s7007 (sense GGATCGGGTTCTAAAGGAA; chemistry not given here)    1.87
Hs_PPIL2_3 (CACCAATTTGGACAAGTTCAA; chemistry not given here)    1.2

Report Score_si2 for s16999 (GCACGTAACAGCTAAGGAA; chemistry not given here) please. 1.29

Same question, Hs_BCHE_2 (CGGGTTGAAAGAGTTATTGTA; chemistry not given here) this time 0.74

Moving on to the next substance: Hs_CNOT1_1 (sense CAGCTGGAATGGCTATGATTA; chemistry not given here) 2.61

Same thing, different substance: s31800 (CCACACTCATCTATCGCAA; chemistry not given here) 1.32

Then what about the substance s993 (GGTGCGTCATATGCAGGAA; chemistry not given here) [reference compound] ? -0.55

---

Test system: CHIKV
Format: cell-based, chikungunya virus
Class membership depends on Score_si1 alone; the intervals are lower bin (below 1), middle bin (1 to below 2), upper bin (2 or more)

s26801 (sense CCGAGAACCTCACAGAGAA; chemistry not given here)    upper bin
Hs_ODZ3_1 (CCGGGCTGTGTCAAAGAATAA; chemistry not given here)    middle bin
Hs_SIN3A_5 (sense GAGCGTGTAAGCAAGCGTCTA; chemistry not given here)    upper bin
Hs_C15orf15_1 (CAGCATTTGTATAGTAACTAA; chemistry not given here)    middle bin

Assign a category based on measured Score_si1 for Hs_ENTPD2_2 (CGGCGTGATCTTCCAGAAGAA; chemistry not given here) and give only the class name. middle bin

Lookup Hs_PCQAP_1 (CCGCATGATCAACAAGATCGA; chemistry not given here) [reference compound] lower bin

Another substance: s619 (sense CTGCAGTTGTGGTTGGATA; chemistry not given here) middle bin

Record: Hs_FLJ31164_3 (sense GAAGCTGTTGATAGTATTGAA; chemistry not given here) middle bin

How about this substance: Hs_AQP3_3 (CTGGATCAAGCTGCCCATCTA; chemistry not given here) middle bin

Can you check Hs_ATF1_8 (CTGCATCAGGAGATATGCAAA; chemistry not given here) [reference compound] next? lower bin

// query: Hs_CNOT3_1 (sense CTCGGACACTGTGGAATTCTA; chemistry not given here) upper bin

Also check Hs_GSTP1_2 (sense CCAGATCTCCTTCGCTGACTA; chemistry not given here) upper bin

Consider next the substance Hs_RAB3D_1 (sense CAGGCCCTGTTTAGCTGTTTA; chemistry not given here) in the same way. middle bin

Now the substance Hs_PGD_1 (TAGAAGTGTATTCCTAGGAAA; chemistry not given here) upper bin

Repeat with Hs_TREX2_1 (CACAATGGCTTTGATTATGAT; chemistry not given here) [reference compound] lower bin

Same lookup for Hs_EP400_1 (CAGAATGATTTGGACATTGAA; chemistry not given here) , please. upper bin

Note, next up: Hs_GUCY1B3_2 (sense ACCTAACATGGTGATCTGCAA; chemistry not given here) [reference compound] lower bin

---

Test system: CHIKV
Assay type: cell-based, chikungunya virus
outcome_measure: Score_si2
Please respond with just the number, no unit label.

s20629 (sense GGAGAAAGAATCAACGGAA; chemistry not given here)    2
Hs_RPS6KC1_1 (sense CCGGGTTGTTTCACGAAGAAA; chemistry not given here) [reference compound]    -1.09
s617 (sense GGTCTTGGAGGGAATCCTA; chemistry not given here)    1.33
Hs_LOXL2_1 (sense CCGGAGTTGCCTGCTCAGAAA; chemistry not given here)    1.33
s19091 (sense CAACAACCTTACACGAGTA; chemistry not given here) [reference compound]    -0.78
Hs_RARSL_6 (sense TAGATCGAATGGACAAGTATA; chemistry not given here) [reference compound]    -1.49

Request - read-out Score_si2 | tested on CHIKV | substance s14674 (sense GTATGAAGGAGGTATCTTT; chemistry not given here) 2.12

Now consider s33489 (GGACTTCTGAAAATTCGCA; chemistry not given here) and answer again. 1.9
